Provenance of the data: ChEMBL document CHEMBL3046747

- measurement_target: Ecdysone receptor (Bombyx mori)
- Sequence (P49881 whole entry): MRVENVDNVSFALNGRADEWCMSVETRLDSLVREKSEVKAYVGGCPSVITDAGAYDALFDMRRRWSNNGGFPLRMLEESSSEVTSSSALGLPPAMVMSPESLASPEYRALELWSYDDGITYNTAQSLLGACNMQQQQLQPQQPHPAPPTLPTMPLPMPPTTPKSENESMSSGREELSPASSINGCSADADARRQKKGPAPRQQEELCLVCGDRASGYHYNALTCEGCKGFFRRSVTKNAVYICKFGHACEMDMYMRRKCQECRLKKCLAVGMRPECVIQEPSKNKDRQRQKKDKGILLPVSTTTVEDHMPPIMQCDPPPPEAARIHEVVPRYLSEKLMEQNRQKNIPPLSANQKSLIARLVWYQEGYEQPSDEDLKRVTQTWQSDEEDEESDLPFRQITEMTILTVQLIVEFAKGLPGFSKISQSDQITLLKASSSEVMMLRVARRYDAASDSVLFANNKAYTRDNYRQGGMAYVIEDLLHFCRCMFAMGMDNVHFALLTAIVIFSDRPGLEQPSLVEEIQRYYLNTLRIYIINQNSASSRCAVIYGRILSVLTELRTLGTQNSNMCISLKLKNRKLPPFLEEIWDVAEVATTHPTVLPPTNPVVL
- assay_notes: Antagonist activity at ecdysone receptor in Bombyx mori Bm5 cells assessed as tebufenozide-induced effect treated 24 hr before tebufenozide challenge measured after 24 hr by luciferase reporter gene assay
IC50 strictly under 30 µM means yes; at 30 µM or over means no.

Cc1ccc(NC2CCN(C(=O)c3ccc(Cl)cc3)CC2)cc1	yes
CCc1ccc(C(=O)NC(C(=O)c2cc(C)cc(C)c2)C(C)(C)C)cc1 (centres undefined)	yes
Cc1ccc(NC2CC(C)N(C(=O)c3ccc(C(C)(C)C)cc3)c3ccc(C)cc32)cc1 (centres undefined)	yes
Cc1ccc(NC2CC(C)N(C(=O)c3ccc(Cl)cc3)c3ccc(C)cc32)cc1 (centres undefined)	yes
CC1CCc2ccccc2N1C(=O)c1ccc(Cl)cc1 (centres undefined)	no

Exercise: Hello, is IC50 of the following molecule strictly smaller than 30 µM? Cc1ccc(NC2CC(C)N(C(=O)c3ccc(C)cc3)c3ccc(C)cc32)cc1 (centres undefined)
Key: yes

Exercise: Hello, is IC50 of the following molecule strictly smaller than 30 µM? Cc1ccc(NC2CCN(C(=O)c3ccc(Cl)cc3)c3ccccc32)cc1 (centres undefined)
Key: yes

Exercise: Hello, is IC50 of the following molecule strictly smaller than 30 µM? Cc1cc(C)cc(C(=O)C2(NC(=O)C(F)(F)F)CCCCC2)c1
Key: no

Exercise: Hello, is IC50 of the following molecule strictly smaller than 30 µM? Cc1ccc(N(C(=O)c2ccc(Cl)cc2)C2CC(C)N(C(=O)c3ccc(Cl)cc3)c3ccc(C)cc32)cc1 (centres undefined)
Key: yes

----------
- measurement_target: Ecdysone receptor (Spodoptera littoralis) (UniProt E3UJZ5)
- Sequence (E3UJZ5 as listed by the source): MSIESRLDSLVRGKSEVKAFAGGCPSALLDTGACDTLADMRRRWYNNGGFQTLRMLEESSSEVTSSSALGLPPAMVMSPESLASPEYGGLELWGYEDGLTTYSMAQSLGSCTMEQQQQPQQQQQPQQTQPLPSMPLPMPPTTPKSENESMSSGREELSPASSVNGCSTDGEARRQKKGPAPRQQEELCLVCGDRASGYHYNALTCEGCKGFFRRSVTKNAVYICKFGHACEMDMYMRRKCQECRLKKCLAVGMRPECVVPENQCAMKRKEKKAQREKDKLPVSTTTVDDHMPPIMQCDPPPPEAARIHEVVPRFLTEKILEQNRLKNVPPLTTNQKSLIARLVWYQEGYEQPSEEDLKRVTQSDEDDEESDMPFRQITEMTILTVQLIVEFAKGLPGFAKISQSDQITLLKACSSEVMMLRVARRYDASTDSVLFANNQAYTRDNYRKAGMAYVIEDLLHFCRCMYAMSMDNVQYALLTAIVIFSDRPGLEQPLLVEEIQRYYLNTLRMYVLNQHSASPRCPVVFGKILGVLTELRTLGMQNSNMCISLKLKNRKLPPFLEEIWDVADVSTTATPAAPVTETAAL
- assay_notes: Agonist activity at ecdysone receptor in Spodoptera littoralis Sl2 cells after 24 hr by luciferase reporter gene assay relative to tebufenozide
- Type: cell-based
Efficacy strictly under 90% means class 1; at 90% or over means class 0.

Cc1cc(C)cc(C(=O)C2(NC(=O)c3ccc4c(c3C)CCCO4)CCCCC2)c1	class 0

Exercise: Hello, is Efficacy of the following molecule strictly smaller than 90%? CCCCc1ccc(C(=O)NN(C(=O)c2cc(C)cc(C)c2Cl)C(C)(C)C)cc1
Key: class 1

Exercise: Hello, is Efficacy of the following molecule strictly smaller than 90%? Cc1cc(C)c(Cl)c(C(=O)N(NC(=O)c2ccc3c(c2C)CCCO3)C(C)(C)C)c1
Key: class 0

Exercise: Hello, is Efficacy of the following molecule strictly smaller than 90%? Cc1ccccc1C(=O)N(NC(=O)c1cccc(F)c1)C(C)(C)C
Key: class 0

Exercise: Hello, is Efficacy of the following molecule strictly smaller than 90%? COc1ccc(C(=O)NN(C(=O)c2cc(C)cc(C)c2Cl)C(C)(C)C)cc1
Key: class 0

Exercise: Hello, is Efficacy of the following molecule strictly smaller than 90%? COc1ccc(C(=O)NN(C(=O)c2ccccc2Cl)C(C)(C)C)cc1
Key: class 1

Exercise: Hello, is Efficacy of the following molecule strictly smaller than 90%? CCCCCc1ccc(C(=O)NN(C(=O)c2ccccc2Cl)C(C)(C)C)cc1
Key: class 1

Exercise: Hello, is Efficacy of the following molecule strictly smaller than 90%? Cc1cc(C)cc(C(=O)N(NC(=O)c2ccc(C(C)(C)C)cc2)C(C)(C)C)c1
Key: class 1

Exercise: Hello, is Efficacy of the following molecule strictly smaller than 90%? CC1CC(Nc2ccc(F)cc2)c2cc(F)ccc2N1C(=O)c1ccc(Cl)cc1 (centres undefined)
Key: class 1

Exercise: Hello, is Efficacy of the following molecule strictly smaller than 90%? CCCCCc1ccc(C(=O)NN(C(=O)c2cc(C)cc(C)c2Cl)C(C)(C)C)cc1
Key: class 1

Exercise: Hello, is Efficacy of the following molecule strictly smaller than 90%? CCOc1ccccc1C(=O)N(NC(=O)c1ccc(Cl)cc1)C(C)(C)C
Key: class 1
